Source: paper PMC2933425

# Assay method text: Photophysical measurements
# Assay type: physicochemical
# Particulars: aerated methanol
Measured Qy(0,0) fluorescence fwhm of individual entries
Unit nm implied. Number only.

Line notation | Measured attribute | Assay result
CC1(C)Cc2cc3[nH]c(cc4nc(cc5[nH]c(cc1n2)cc5C#CC[N+](C)(C)C)CC4(C)C)cc3C#CC[N+](C)(C)C.[Cl-].[Cl-] | Qy(0,0) fluorescence fwhm | 22
CC1(C)Cc2cc3[nH]c(cc4nc(cc5[nH]c(cc1n2)cc5-c1cc(OCCO)cc(OCCO)c1)CC4(C)C)cc3-c1cc(OCCO)cc(OCCO)c1 | Qy(0,0) fluorescence fwhm | 24
COCCN(CCOC)C(=O)c1cc2cc3nc(cc4[nH]c(cc5nc(cc1[nH]2)CC5(C)C)cc4C(=O)N(CCOC)CCOC)CC3(C)C | Qy(0,0) fluorescence fwhm | 27
CC1(C)Cc2cc3[nH]c(cc4nc(cc5[nH]c(cc1n2)cc5C(=O)N(CCN)CCN)CC4(C)C)cc3C(=O)N(CCN)CCN | Qy(0,0) fluorescence fwhm | 24

Query: Please give measured Qy(0,0) fluorescence fwhm of the following entry: CC1(C)Cc2cc3[nH]c(cc4nc(cc5[nH]c(cc1n2)cc5C(=O)O)CC4(C)C)cc3C(=O)O
Reply: 19

Query: Please give measured Qy(0,0) fluorescence fwhm of the following entry: CC1(C)Cc2cc3[nH]c(cc4nc(cc5[nH]c(cc1n2)cc5C(=O)N1CC[N+](C)(C)CC1)CC4(C)C)cc3C(=O)N1CC[N+](C)(C)CC1.[Cl-].[Cl-]
Reply: 28

Query: Please give measured Qy(0,0) fluorescence fwhm of the following entry: CC1(C)Cc2cc3[nH]c(cc4nc(cc5[nH]c(cc1n2)cc5CN(CCO)CCO)CC4(C)C)cc3CN(CCO)CCO
Reply: 23
